The measurements presented in this section are drawn from the supplement of paper PMC10567573.

B1: INTS4 (parent)
chain: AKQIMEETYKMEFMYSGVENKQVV

- Variants of: B1
- assay.procedure: protein stability index of a GFP-peptide fusion (GPS, HEK-293T) (PSI 1-6); higher = more stable;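 note: lentivirally expressed fusions sorted by FACS into six bins by GFP to DsRed ratio, PSI derived from sequencing read proportions per bin multiplied by bin number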
- test.context: c terminus: a fixed tail appended
experimental.endpoint: protein stability index

> print(dat)
   mutant.name    experimental.endpoint  measured.number
1         S16R  protein stability index             1.36
2         V24K  protein stability index             1.98
3         V24N  protein stability index             2.44
4         M11K  protein stability index             3.44
5          E7H  protein stability index              1.7
6         K10F  protein stability index             1.13
7          K2F  protein stability index             2.51
